# protocol_text: Cytotoxicity (CC50) in mock-infected cells, CPE inhibition assay, MTT
# test_context: human
measurement_type: CC50 (µg/mL)
Form entry: value (µg/mL) — number only.

Req: Any idea what CC50 was measured for CC(C)c1ccc2c(c1)OC1(O)c3c(cccc3[N+](=O)[O-])C(=O)C21NC(=O)C(=O)Cc1ccccc1[N+](=O)[O-] (stereo not shown) [Example 25] ?
Resp: 2.6

* * *

Recorded EC50 values for a group of compounds are listed next.
# Test system: poliovirus 3 (PV3)
# protocol_text: microbe, parasite or virus in culture
# Format: cell-based
# test_context: Enterovirus C, 72 h, read-out: EC50 PV3

Req: Any idea what EC50 was measured for CC(C)c1ccc2c(c1)OC1(O)c3ccccc3C(=O)C21NC(=O)C(=O)c1cccs1 (stereo not drawn) [Example 2] ?
Resp: < 1 µg/mL

Req: Any idea what EC50 was measured for CC(C)c1ccc2c(c1)OC1(O)c3c(cccc3[N+](=O)[O-])C(=O)C21NC(=O)C(=O)c1ccccc1 (stereo not drawn) [Example 16] ?
Resp: 2.13 µg/mL

Req: Any idea what EC50 was measured for CC(C)c1ccc2c(c1)OC1(O)c3c(cccc3[N+](=O)[O-])C(=O)C21NC(=O)C(=O)c1c[nH]c2ccccc12 (stereo not drawn) [Example 8] ?
Resp: 9.8 µg/mL

Req: Any idea what EC50 was measured for Cc1cc2c(cc1C)C1(NC(=O)C(=O)c3ccccc3)C(=O)c3ccccc3C1(O)O2 (stereo not drawn) [Example 12] ?
Resp: 9.8 µg/mL

Req: Any idea what EC50 was measured for CCCC(=O)C(=O)NC12C(=O)c3ccccc3C1(O)Oc1cc(C(C)C)ccc12 (stereo not drawn) [Example 5] ?
Resp: < 0.1 µg/mL

Req: Any idea what EC50 was measured for CC(C)c1ccc2c(c1)OC1(O)c3ccccc3C(=O)C21OC(=O)NCCNC(=O)OC(C)(C)C (stereo not drawn) [Example 56] ?
Resp: > 10 µg/mL

Req: Any idea what EC50 was measured for CC(C)c1ccc2c(c1)OC1(O)c3ccccc3C(=O)C21NC(=O)CN (stereo not drawn) [Example 64] ?
Resp: > 10 µg/mL
